# key: entry, value: OX1/OX2
target: OX1R (Homo sapiens); test: OX1R calcium mobilization assay; format: cell-based; design: host or cells: CHO RD-HGA16 cells; conditions: ratio of OX1 to OX2 potency value
Measure name: OX1/OX2

> print(dat)
                                   molecule  target.or.test.system  measure.name  measurement.qualifier  value.observed
1  COc1ccc(-c2cccc(C(=O)N(C)Cc3ccncc3)c2)cc1S(=O)(=O)Nc1cncc(NCCNC(=O)CCC2CCCCC2)c1 [Compound 70]    OX1R (Homo sapiens)       OX1/OX2                      =            0.72
2  COc1ccc(-c2cccc(C(=O)N(C)Cc3ccncc3)c2)cc1S(=O)(=O)Nc1cncc(OCCNC(=O)c2cccc(C)c2)c1 [Compound 55]    OX1R (Homo sapiens)       OX1/OX2                      =            1.52
3  COc1ccc(-c2cccc(C(=O)NCCN(C)C)c2)cc1S(=O)(=O)Nc1cccc(NCCNC(=O)c2cccc(C)c2)c1 [Compound 32]    OX1R (Homo sapiens)       OX1/OX2                      >            10.0

* * *

Target: OX1R (Homo sapiens, UniProt O43613)
Sequence (O43613 1-425): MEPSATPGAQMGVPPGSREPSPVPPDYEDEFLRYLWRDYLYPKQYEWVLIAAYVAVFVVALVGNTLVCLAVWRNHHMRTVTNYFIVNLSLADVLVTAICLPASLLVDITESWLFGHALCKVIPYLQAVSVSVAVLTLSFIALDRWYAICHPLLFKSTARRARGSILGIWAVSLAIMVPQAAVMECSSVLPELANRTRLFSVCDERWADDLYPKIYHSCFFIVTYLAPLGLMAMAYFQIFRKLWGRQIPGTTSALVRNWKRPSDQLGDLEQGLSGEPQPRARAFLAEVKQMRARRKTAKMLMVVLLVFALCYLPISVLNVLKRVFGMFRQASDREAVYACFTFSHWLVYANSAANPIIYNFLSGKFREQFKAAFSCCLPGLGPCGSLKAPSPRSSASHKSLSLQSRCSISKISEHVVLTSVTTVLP
Test: OX1R calcium mobilization assay
Format: cell-based
Parameters: host or cells: CHO RD-HGA16 cells
Settings: Table 10
Measure name: Emax (%)

> print(dat)
                                   molecule  measure.name  value.observed
1  COc1ccc(-c2cccc(C(=O)N(C)Cc3ccncc3)c2)cc1S(=O)(=O)Nc1cncc(NCCNC(=O)c2cccc(C)c2)c1 [Compound 61]          Emax             101
2  COc1ccc(-c2cccc(C(=O)N(C)Cc3ccncc3)c2)cc1S(=O)(=O)Nc1cccc(NCCNC(=O)c2cccc(C)c2)c1 [Compound 38]          Emax             105
3  COc1ccc(-c2cccc(C(=O)N(C)C)c2)cc1S(=O)(=O)Nc1cccc(NCCNC(=O)c2ccccc2N(C)C)c1 [Compound 1, reference compound]          Emax              55
4  COc1ccc(-c2cccc(C(=O)N(C)Cc3ccncc3)n2)cc1S(=O)(=O)Nc1cccc(NCCNC(=O)c2cccc(C)c2)c1 [Compound 59]          Emax              95

Hello, the source for this data is patent US20240174605A1, in case you need it.
